The measurements presented in this section are drawn from PubChem BioAssay (NCI).

- Tested on: NCI-H460 lung
- Assay summary: NCI tumour cell line growth inhibition, 48 h
Value kind: log10(TGI) (log10 of the value in µM)
In our notation, the value equals log10 of TGI in µM.

Example entries begin here.
Compound: NCCn1ccc(NC(c2ccccc2)(c2ccccc2)c2ccccc2)nc1=O
Target: NCI-H460 lung
Endpoint value: 1.58
--
Compound: COc1ccc2c(O)c(/C=C3\N=Nc4ncccc43)oc2c1C[C@H]1CCNC[C@H]1F
Target: NCI-H460 lung
Endpoint value: 0.26
--
Compound: C/C(=N/NC(=S)N(C)CCc1ccccn1)c1cnccn1
Target: NCI-H460 lung
Endpoint value: 1.11

I have 3 molecules here; please give me log10(TGI) for each one.
1. CN(C)/N=C1\C=C2CC[C@H](O[Si](C)(C)C(C)(C)C)[C@@]2(C)CC1
2. Cc1ccc(P(c2ccc(C)cc2)c2ccc(C)cc2)cc1
3. O=C(N[C@@H]1C=CCC[C@@H]1c1ccccc1)OCc1ccccc1

Output:
1. 1.50
2. 1.56
3. 1.54
